Entries and their GI50 values follow.
# System: SK-OV-3
# experimental-protocol: NCI tumour cell line growth inhibition, 48 h
Active and inactive are the calls of the source. No stated cut-off is given here; in the data, active = GI50 up to about 1.1 µM and inactive = higher.

# molecule, target-under-test, GI50
rows = [
    ("COC(=O)c1c2c(cc3c1CCC3)CCC2", "SK-OV-3", "91.4 µM (inactive)"),
    ("O=C(O)CNn1c(SCC(=O)O)nnc(/C=C/c2c(O)ccc3ccccc23)c1=O", "SK-OV-3", "5.53 µM (inactive)"),
    ("O=[N+]([O-])c1cc(CCl)ccc1CCl", "SK-OV-3", "13.3 µM (inactive)"),
    ("N#Cc1ccc(OC(=O)c2ccc(NC(=N)N)cc2)cc1.c1ccncc1", "SK-OV-3", "> 100 µM (inactive)"),
    ("CCCCCCn1c(SC)nc(COC(=O)NC)c1COC(=O)NC", "SK-OV-3", "19 µM (inactive)"),
    ("COc1ccc2[nH]cc(CCNC(=O)[C@H](Cc3ccccc3)NC(=O)[C@@H](NCC(F)(F)F)C(C)C)c2c1", "SK-OV-3", "18.2 µM (inactive)"),
]

Output measured GI50 for this item: O=C(O)COc1ccccc1C(=O)Nc1ccccc1
> 100 µM (inactive)

Answer with reported GI50 of CC1=C[C@@H]2Cc3occc3C(C)(C)[C@@H]2CC1
38.1 µM (inactive)

Please list GI50 recorded for the molecule N=C(N)NS(=O)(=O)c1ccc(Nc2c3ccccc3nc3c(C(=O)N4CCN(CCO)CC4)cccc23)cc1
2.7 µM (inactive)

Let me know recorded GI50 for CC(C)C(N)C(=O)NC(CCC(=O)NCCCCC(N)C(=O)NCCCNc1ccc([N+](=O)[O-])c2[nH]c3ccccc3c(=O)c12)C(N)=O (stereo not given) , thanks.
44.3 µM (inactive)

----------
# Test system: UO-31
# experimental-protocol: NCI tumour cell line growth inhibition, 48 h
Where a name gives a salt, the structure may show the parent alone. Active and inactive are the calls of the source. Rule as the data show it: active = GI50 up to about 1.1 µM and inactive = higher.
// one of class 1 (active), class 0 (inactive), no free text

The following compounds have reported results that may help.
# compound, target-under-test, assigned-category
rows = [
    ("CC(C)C[C@H](NC(=O)[C@H](CCc1ccccc1)NC(=O)c1ccc2ccccc2n1)B(O)O", "UO-31", "class 1"),
    ("COCCNc1cncc(C(N)=O)c1", "UO-31", "class 0"),
    ("Cn1c2c(c3c(=O)[nH]ncc31)Cc1ccccc1-2", "UO-31", "class 0"),
    ("C#CCn1c(I)cc2c(c1=O)COC(=O)[C@]2(O)CC", "UO-31", "class 0"),
    ("Nc1nc(S)nc2snnc12", "UO-31", "class 0"),
]

Which outcome was assigned to CN1C(=O)C(O)C[C@@H]1c1ccc(F)cc1 (stereo partly drawn) in this test?
class 0

Hello, I am checking results. What call was entered for N=C(N)c1ccc(-c2ccc(-c3ccc(C(=N)N)cc3)o2)cc1 [FURAMIDINE HYDROCHLORIDE] ?
class 0

Please indicate how the test categorized COc1ccc2oc(C(=O)O)c3c2c1CCC3CCC(=O)O (stereo not drawn) .
class 0

For CCSCCCC(=O)O , what call appears in the results of this test?
class 0

For this compound, state the assay outcome: COc1cccc2cc(C(=O)NC34CC5CC(CC(C5)C3)C4)c(=N)oc12
class 0

Which result was noted for this compound in the test: COC(=O)C1=C(C)NC(C)=C([N+](=O)[O-])C1c1cccc(N=O)c1 (stereo not drawn)
class 0

Test call for this compound, please: Cc1cccc(C(C)(C)C)c1NC(=O)CCc1nnc(S)[nH]1
class 0

Field: outcome | Entry: O=c1oc2c(ccc3occc32)c(N2CCCCC2)c1-c1ccccc1
class 0

So what was the verdict on O=C1NCC2(CCNCC2)N1 in this test?
class 0

Outcome? CN(C)c1ccc(/C=C/c2ccc3ccccc3[n+]2C)cc1
class 0

Test call for this compound, please: O=C(Nc1ccccc1C(=O)O)C(=Cc1ccccc1O)NC(=O)c1ccccc1
class 0

Recorded test outcome, item Cc1ccccc1Nc1nc2c(s1)C(=O)c1ccccc1C2=O
class 0

Write down the call the test reported for this compound. Item: COc1ccc(-c2c(N)n(-c3cccc(C(=O)O)c3)c(=O)c3cc([N+](=O)[O-])ccc23)cc1
class 0

Write down the call the test reported for this compound. Item: CC(=O)C(=Cc1cn(C)c(=O)n(C)c1=O)C(C)=O
class 0

Check the results log: what was the call for CC1(c2cccc(Cl)c2)CC(c2cccc(Cl)c2)=C(C#N)C(=C(C#N)C#N)N1 (stereo not drawn) ?
class 0

// return assay outcome for COC(=O)/C(C#N)=C1\NN=NN1CCCc1ccccc1
class 0

State the result this test recorded for O=C(CN1CCCCC1)c1ccc2c(c1)Sc1ccccc1O2 .
class 0

Answer briefly: the call reported for CCCCCCCC/C=C\CCCCCCCC(=O)NCCN(CCN)C(=O)CCCCCCC/C=C\CCCCCCCC in this assay.
class 0

Recorded test outcome, item COC(=O)[C@@]1(C)CCC[C@]2(C(=O)O)C3Cc4occc4[C@H](C)[C@@H]3CCC21 (stereo partly drawn)
class 0

Outcome logged for O=[N+]([O-])c1cc(CCl)ccc1CCl in this assay:
class 0

Call for entry Cc1ccc(S(=O)(=O)c2c(N)c3nccn3c3nc4ccccc4nc23)cc1 :
class 0

----------
# Tested on: HOP-18
# experimental-protocol: NCI tumour cell line growth inhibition, 48 h
Calls of active or inactive are those of the source. No stated cut-off is given here; in the data, active = GI50 up to about 1.1 µM and inactive = higher.
Select the matching outcome among true (1) = active, false (0) = inactive

# compound, assigned-category
records = [
    ("C=C1c2ccccc2N(S(=O)(=O)c2ccc(C)cc2)C12CCCCC2", "false (0)"),
    ("O=C(N[C@@H](c1ccccc1)[C@@H](O)C(=O)OCc1ccc2c(c1)OCO2)c1ccccc1", "false (0)"),
    ("CCOC(=O)NC(=O)c1cn(CCSCCOC(=O)NCCCCCCNC(=O)OCCSCCn2cc(C(=O)NC(=O)OCC)c(=O)n(C)c2=O)c(=O)n(C)c1=O", "true (1)"),
    ("O=C1CNNC(Cn2nc(-c3ccccc3)c3ccccc3c2=O)=N1", "false (0)"),
    ("CCc1ccccc1NC(=O)CCc1n[nH]c(=S)o1", "false (0)"),
    ("CC(=O)C(=Cc1cn(C)c(=O)n(C)c1=O)C(C)=O", "false (0)"),
    ("COc1ccccc1NC(=O)C(=O)C(c1cnc2ccc([N+](=O)[O-])cc2n1)[N+](=O)[O-] (stereo not given)", "false (0)"),
    ("CCCCCCCCOCC(O)COC(C)C (stereo not given)", "false (0)"),
    ("Cc1cc2nc3ccc(N(C)C)cc3[s+]c2cc1N [TOLONIUM CHLORIDE]", "false (0)"),
]

Could you now look at the following compound, please?
Which outcome did this test record for the compound Cc1ccccc1C(=O)c1c(O)c2c(c(O)c1Br)CCCC2 ?
false (0)

----------
# Test system: SF-295
# experimental-protocol: NCI tumour cell line growth inhibition, 48 h
Calls of active or inactive are those of the source. Rule as the data show it: active = GI50 up to about 1.1 µM and inactive = higher.
measurement-label: GI50

Solved cases below.
# compound, observed-value
records = [
    ("O=c1nc(-c2ccccc2)scc1-c1ccccc1", "> 100 µM (inactive)"),
    ("CCCCCCCCCCCCC(O)C1CCC(C(O)CCCCCCC(O)CCCCCCCC2=CC(C)OC2=O)O1 (stereo unspecified)", "3.86 µM (inactive)"),
    ("Cc1cc2nc(CC(C(F)(F)F)C(F)(F)F)oc2cc1C", "4.76 µM (inactive)"),
    ("CCOC(=O)C1=C(C)N(NC(N)=O)C(C)(O)C12CCOC2=O (stereo unspecified)", "> 100 µM (inactive)"),
    ("O=C(O)CNn1c(SCC(=O)O)nnc(/C=C/c2c(O)ccc3ccccc23)c1=O", "3.89 µM (inactive)"),
]

# return recorded GI50 for input COc1ccc(NC(=O)CC(=O)N/N=C/c2ccc(N(CCC#N)S(=O)(=O)c3ccccc3)cc2)cc1
> 100 µM (inactive)

----------
# Test system: SF-539
# experimental-protocol: NCI tumour cell line growth inhibition, 48 h
Active and inactive are the calls of the source. Rule as the data show it: active = GI50 up to about 1.1 µM and inactive = higher.
Entries and their measured GI50 follow.

# compound, GI50
rows = [
    ("CCOC(=O)/C=C/c1c[nH]c(=O)[nH]c1=O", "> 75 µM (inactive)"),
    ("COc1ccc2c(c1)[n+]([O-])c(C(=O)C/C(=N\\NC(=O)C[N+](C)(C)C)C(=O)Nc1cc(Cl)ccc1Cl)c(C)[n+]2[O-]", "> 100 µM (inactive)"),
    ("CCOC(=O)C1Nc2ccccc2[C@H]2OCC[C@@H]12 (some centres not stated)", "> 100 µM (inactive)"),
]

Please report GI50 with SF-539 for item CCOC(=O)C(NC(=O)CC)(Nc1ccc(S(=O)(=O)Nc2onc(C)c2C)cc1)C(F)(F)F (configuration not stated) .
> 100 µM (inactive)

Write down measured GI50 (SF-539) for this compound. CCCCOC(=O)Nc1ccc(S(=O)(=O)Nc2ccccc2Cl)cc1
17.6 µM (inactive)
